Values compiled from the supplement of paper PMC6555819.

Could you please report measured PBM binding z-score for the items listed next?
- Tested on: PPARg:RXRa IVT, anti-PPARg (NR concentration 270 nM, RXRa partner concentration 90 nM)
- test.details: PBM binding z-score (relative to random genomic background probes); higher = stronger binding; sequences stand for … in GC…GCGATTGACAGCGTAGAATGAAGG

Observe how each entry below is paired with its result.
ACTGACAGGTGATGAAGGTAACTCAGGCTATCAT : 0.675
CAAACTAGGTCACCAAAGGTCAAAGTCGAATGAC : 9.1
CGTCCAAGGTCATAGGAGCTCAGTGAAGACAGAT : 3.29
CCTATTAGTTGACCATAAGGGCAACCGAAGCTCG : 0.558
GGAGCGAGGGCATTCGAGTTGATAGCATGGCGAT : 0.079
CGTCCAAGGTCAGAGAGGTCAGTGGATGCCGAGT : 3.74
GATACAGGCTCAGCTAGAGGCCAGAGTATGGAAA : -0.379
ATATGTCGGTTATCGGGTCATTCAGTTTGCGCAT : 4.28

For every item below, please supply its PBM binding z-score.
1. CGAACGAGGGCATGAGTTGATACCAAATGCCGAT
2. CCGACTGGGACAAGGTTACCATAACGCACAGCCA
3. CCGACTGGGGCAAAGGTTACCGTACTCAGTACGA
4. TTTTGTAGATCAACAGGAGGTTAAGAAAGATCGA

Result:
1. 2.32
2. 2.07
3. 5.85
4. 1.98

###

- System: RXRa homodimer (NR concentration 180 nM)
- test.details: PBM binding z-score (relative to random genomic background probes); higher = stronger binding; sequences stand for … in GC…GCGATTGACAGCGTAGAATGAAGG
measurement.name: PBM binding z-score

// worked examples, PBM binding z-score included
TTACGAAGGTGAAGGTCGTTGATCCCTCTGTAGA : 1.93
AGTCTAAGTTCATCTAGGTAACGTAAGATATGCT : 2.6
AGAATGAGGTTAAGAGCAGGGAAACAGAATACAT : 2.46
CCGAGTAGGGTATGGGGCATTCAGGCAACGGTGA : 0.102
GCACGGAGGACAAGGTCAGAGCTTTGTCCGTAGA : 2.56

Query: Give its PBM binding z-score value. Item: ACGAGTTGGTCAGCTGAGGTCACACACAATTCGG
Result: 4

###

- Tested on: PPARg:RXRa 90nM:30nM, anti-RXR (NR concentration 90 nM, RXRa partner concentration 30 nM)
- test.details: PBM binding z-score (relative to random genomic background probes); higher = stronger binding; sequences stand for … in GC…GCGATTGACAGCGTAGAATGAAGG
Classification by PBM binding z-score | ranges: low value (below 0.6), medium value (0.6 to below 2), high value (2 or more)

Query: Class label required: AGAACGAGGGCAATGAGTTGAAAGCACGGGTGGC
Result: low value

###

- System: PPARg:RXRa IVT, anti-PPARg (NR concentration 270 nM, RXRa partner concentration 90 nM)
- test.details: PBM binding z-score (relative to random genomic background probes); higher = stronger binding; sequences stand for … in GC…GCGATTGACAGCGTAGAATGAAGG
measurement.name: PBM binding z-score
Give bare numbers.

Before answering, review these 5 worked examples.
TGTCAAAGTTCAAAGCTAACGTAAGTATCCACAC : 3.82
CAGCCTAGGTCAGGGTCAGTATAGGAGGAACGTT : 2.57
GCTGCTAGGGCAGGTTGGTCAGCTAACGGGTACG : 0.109
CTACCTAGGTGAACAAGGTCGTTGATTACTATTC : 3.81
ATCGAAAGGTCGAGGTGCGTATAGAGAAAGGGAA : 1.03

Query: Need PBM binding z-score, item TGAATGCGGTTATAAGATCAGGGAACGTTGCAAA
Result: 0.042

###

Provide the recorded PBM binding z-score for the entries that follow.
- Test system: RXRa DBDmut IVT, anti-RXR (DBD mutation: RXRa K156A/R161A, NR concentration 90 nM)
- test.details: PBM binding z-score (relative to random genomic background probes); higher = stronger binding; sequences stand for … in GC…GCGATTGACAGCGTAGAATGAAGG
One number for each entry.

Hello, I would appreciate it if you could give PBM binding z-score for each entry below.
1. GCTCACGGGTCAAAGGTTATAGCATGAATAGAAT
2. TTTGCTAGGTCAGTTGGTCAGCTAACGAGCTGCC
3. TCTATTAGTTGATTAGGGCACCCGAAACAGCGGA
4. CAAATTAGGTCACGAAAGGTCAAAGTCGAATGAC
5. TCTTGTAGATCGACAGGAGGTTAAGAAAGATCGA
6. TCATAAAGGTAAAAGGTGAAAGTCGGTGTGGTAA

Result:
1: 2.36; 2: 0.279; 3: 1.22; 4: 2.57; 5: 0.223; 6: 1.94

###

- System: RXRa homodimer (NR concentration 180 nM)
- test.details: PBM binding z-score (relative to random genomic background probes); higher = stronger binding; sequences stand for … in GC…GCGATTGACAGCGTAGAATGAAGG
measurement.name: PBM binding z-score
Answers are plain numbers.

Batch request: PBM binding z-score for each of the following sequences.
1. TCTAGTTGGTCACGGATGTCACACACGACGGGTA
2. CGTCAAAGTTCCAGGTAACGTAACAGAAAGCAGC
3. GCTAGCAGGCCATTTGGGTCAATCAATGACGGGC
4. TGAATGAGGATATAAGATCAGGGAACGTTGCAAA
5. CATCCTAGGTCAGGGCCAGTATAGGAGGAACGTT

Result:
1: 1.15; 2: 0.0249; 3: 0.805; 4: 0.189; 5: 2.22

Query: Give its PBM binding z-score value. Item: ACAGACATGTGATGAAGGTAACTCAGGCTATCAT
Result: 0.168

###

- Test system: PPARg:RXRa DBDmut IVT, anti-RXR (DBD mutation: RXRa K156A/R161A, NR concentration 270 nM, RXRa partner concentration 90 nM)
- test.details: PBM binding z-score (relative to random genomic background probes); higher = stronger binding; sequences stand for … in GC…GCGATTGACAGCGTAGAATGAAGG
Tag: Y if measured PBM binding z-score is not below 2, N if it is.

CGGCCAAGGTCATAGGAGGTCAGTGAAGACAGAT : Y
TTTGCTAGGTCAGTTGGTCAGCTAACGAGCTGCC : Y
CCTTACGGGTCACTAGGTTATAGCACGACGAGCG : Y
TCACCAAGGTGAGCTGAGGTCGTTGATCCAACTC : N
ACACACAGGTGATGAAGGTAACTCAGGCTATCAT : N

Query: Is PBM binding z-score at least 2? Consider ACGGACAGGTGAGTGAAGGTAACTCAGCTGGACG
Result: N

Query: I'd appreciate it if you could say whether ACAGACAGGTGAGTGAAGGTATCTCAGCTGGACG has PBM binding z-score at least equal to 2.
Result: N

Query: Can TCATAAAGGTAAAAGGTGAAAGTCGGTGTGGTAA be said to have PBM binding z-score at or above 2?
Result: Y

###

- System: RARb:RXRa (NR concentration 270 nM, RXRa partner concentration 90 nM)
- test.details: PBM binding z-score (relative to random genomic background probes); higher = stronger binding; sequences stand for … in GC…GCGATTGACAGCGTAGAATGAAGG
Please respond with reported PBM binding z-score for every item in the list.
Numbers only.

Examples with answers:
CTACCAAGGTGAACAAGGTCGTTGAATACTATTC : 2.03
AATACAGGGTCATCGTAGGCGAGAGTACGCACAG : 4.37
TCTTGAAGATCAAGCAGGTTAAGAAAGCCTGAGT : 0.0323
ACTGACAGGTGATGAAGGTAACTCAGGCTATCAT : 0.224
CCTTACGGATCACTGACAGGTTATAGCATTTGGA : 0.471
ACTATTAGTTGAGACGAGGTCAACCGATAGGTTG : 3.52

Below are some sequences; for each one, tell me its PBM binding z-score.
1. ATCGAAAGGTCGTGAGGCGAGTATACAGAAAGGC
2. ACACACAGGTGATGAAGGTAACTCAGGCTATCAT

Result:
1: 4.1; 2: 0.355

###

- System: PPARg DBDmut:RXRa IVT, anti-PPARg (DBD mutation: PPARg1 K132A/R137A, NR concentration 270 nM, RXRa partner concentration 90 nM)
- test.details: PBM binding z-score (relative to random genomic background probes); higher = stronger binding; sequences stand for … in GC…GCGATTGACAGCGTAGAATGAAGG
I'd be grateful if you could share measured PBM binding z-score for these entries.
One number for each entry.

Below, 5 sequences whose answers are already recorded.
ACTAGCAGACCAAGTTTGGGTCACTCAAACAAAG : -0.191
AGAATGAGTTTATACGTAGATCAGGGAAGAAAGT : 0.757
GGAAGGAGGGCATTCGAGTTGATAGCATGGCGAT : -0.146
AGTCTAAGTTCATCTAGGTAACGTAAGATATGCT : 1.22
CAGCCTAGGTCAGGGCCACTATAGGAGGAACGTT : -0.722

Batch request: PBM binding z-score per item, same order as input.
1. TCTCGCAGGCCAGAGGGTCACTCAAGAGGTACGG
2. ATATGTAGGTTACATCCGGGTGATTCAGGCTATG
3. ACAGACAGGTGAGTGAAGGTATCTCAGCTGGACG

Result:
[-0.712, 2.76, -0.168]

Respectfully, I request PBM binding z-score for each entry included below.
1. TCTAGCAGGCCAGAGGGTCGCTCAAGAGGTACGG
2. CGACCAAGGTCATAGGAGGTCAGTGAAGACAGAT
3. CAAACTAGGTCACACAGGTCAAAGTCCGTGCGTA
4. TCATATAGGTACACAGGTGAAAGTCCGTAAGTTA

Result:
[-1.68, 0.399, 1.71, 0.518]
